Each recorded value in this set is attributed to ChEMBL document CHEMBL4004878.

In this section, each of the molecules is paired with its reported MBC.
test system: Streptococcus pyogenes; assay: Bactericidal activity against Streptococcus pyogenes 01-968 expressing inducible ermA incubated for 20 to 24 hrs followed by sub-culturing for 24 hrs in absence of compound; assay type: functional

Structure string: CC[C@H]1OC(=O)[C@H](C)[C@@H](OC(=O)Cc2ccccn2)[C@H](C)[C@@H](O[C@@H]2O[C@H](C)C[C@H](N(C)C)[C@H]2O)[C@](C)(OC)C[C@@H](C)/C(=N\OC/C=C/c2cccnc2)[C@H](C)[C@H]2OC(=O)O[C@@]21C
MBC: > 64 µg/mL
//
Structure string: CC[C@H]1OC(=O)[C@H](C)[C@H](OC(=O)Cc2ccccn2)[C@H](C)[C@@H](O[C@@H]2O[C@H](C)C[C@H](N(C)C)[C@H]2O)[C@](C)(OC)C[C@@H](C)/C(=N\OC)[C@H](C)[C@H]2OC(=O)O[C@@]21C
MBC: > 64 µg/mL
//
Structure string: CC[C@H]1OC(=O)[C@@](C)(F)C(=O)[C@H](C)[C@@H](O[C@@H]2O[C@H](C)C[C@H](N(C)C)[C@H]2O)[C@](C)(OC)C[C@@H](C)/C(=N\OCC#Cc2cncc3ccccc23)[C@H](C)[C@H]2OC(=O)O[C@@]21C
MBC: > 0.5 µg/mL
//
Structure string: CC[C@H]1OC(=O)[C@@](C)(F)C(=O)[C@H](C)[C@@H](O[C@@H]2O[C@H](C)C[C@H](N(C)C)[C@H]2O)[C@](C)(OC)C[C@@H](C)/C(=N\OC/C=C/c2cncc(N)c2)[C@H](C)[C@H]2OC(=O)O[C@@]21C
MBC: > 0.5 µg/mL
